Attribution: ChEMBL document CHEMBL5365497

test system: Candida albicans; assay: Antifungal activity against fluconazole-resistant Candida albicans 901 assessed as fungal growth inhibition by CLSI based microdilution method; assay type: functional
parameter measured: MIC

So the reported MIC for CCC(C)n1ncn(-c2ccc(N3CCN(c4ccc(OCC5COC(Cn6cncn6)(c6ccc(Cl)cc6Cl)O5)cc4)CC3)cc2)c1=O (stereo not drawn) [ITRACONAZOLE] , on Candida albicans, turned out to be > 128 µg/mL

So the reported MIC for C[C@@H](c1ncncc1F)[C@](O)(Cn1cncn1)c1ccc(F)cc1F [VORICONAZOLE] , on Candida albicans, turned out to be > 128 µg/mL

---

test system: Pichia kudriavzevii; assay: Antifungal activity against Pichia kudriavzevii assessed as fungal growth inhibition by CLSI based microdilution method; format: functional
Attribute: MIC

As a guide, the following entries are already answered.
compound	MIC
O=c1ccc2ccc(COC(Cn3ccnn3)c3ccc(F)cc3F)cc2o1 (stereo not drawn)	> 128 µg/mL
O=c1oc2ccc([N+](=O)[O-])cc2cc1COC(Cn1ccnc1)c1ccc(Cl)cc1Cl (stereo not drawn)	> 128 µg/mL
O=c1ccc2ccc(COC(Cn3cnnn3)c3ccc(Cl)cc3Cl)cc2o1 (stereo not drawn)	> 128 µg/mL
O=c1oc2c(Cl)cc(Cl)cc2cc1COC(Cn1ccnc1)c1ccc(F)cc1F (stereo not drawn)	> 128 µg/mL

get_value(item= O=c1oc2c(Cl)cc(Cl)cc2cc1COC(Cn1ccnc1)c1ccc(Cl)cc1Cl (stereo not drawn) , readout=MIC) returns > 128 µg/mL

get_value(item= O=c1ccc2cc(COC(Cn3ccnn3)c3ccc(F)cc3F)ccc2o1 (stereo not drawn) , readout=MIC) returns > 128 µg/mL

get_value(item= O=c1oc2c(Cl)cc(Cl)cc2cc1COC(Cn1ccnc1)c1ccc(F)cc1 (stereo not drawn) , readout=MIC) returns > 128 µg/mL

get_value(item= O=c1ccc2cc(COC(Cn3cncn3)c3ccc(Cl)cc3Cl)ccc2o1 (stereo not drawn) , readout=MIC) returns 16 µg/mL

get_value(item= O=c1oc2ccccc2cc1COC(Cn1cncn1)c1ccc(Cl)cc1Cl (stereo not drawn) , readout=MIC) returns 32 µg/mL

get_value(item= O=c1ccc2cc(COC(Cn3ccnc3)c3ccc(Cl)cc3Cl)ccc2o1 (stereo not drawn) , readout=MIC) returns 0.5 µg/mL

get_value(item= COc1cccc2cc(COC(Cn3ccnc3)c3ccc(Cl)cc3Cl)c(=O)oc12 (stereo not drawn) , readout=MIC) returns 32 µg/mL

get_value(item= O=c1ccc2ccccc2o1 , readout=MIC) returns > 128 µg/mL

get_value(item= O=c1oc2ccc(F)cc2cc1COC(Cn1ccnc1)c1ccc(Cl)cc1Cl (stereo not drawn) , readout=MIC) returns 2 µg/mL
